Origin of values: paper PMC9401491

- Tested on: HAP1 cells
- procedure.summary: MTT cell viability, HAP1 cells
- Assay type: cell-based
- recorded.conditions: Homo sapiens, HAP1, read-out: IC50 concentration used for RNA-seq
readout.label: IC50 (µM)

{"compound": "C[C@H](NP(=O)(OC[C@@H]1C[C@@H](O)[C@H](n2cnc3c(N)ncnc32)O1)Oc1ccccc1)C(=O)OCc1ccccc1 (stereo partly shown)", "unit.label": "µM", "reported.measurement": 7.6}

====

- procedure.summary: Beagle dog 4-week toxicology and toxicokinetics
- recorded.conditions: both, beagle, plasma, iv
readout.label: clearance

{"molecule": "C[C@H](NP(=O)(OC[C@@H]1C[C@@H](O)[C@H](n2cnc3c(N)ncnc32)O1)Oc1ccccc1)C(=O)OCc1ccccc1 (stereo partly shown)", "reported.measurement": "245 to 533 mL/min/kg"}

====

- Tested on: A498
- procedure.summary: MTT cell viability, A498
- Format: cell-based
- recorded.conditions: Homo sapiens, A498, 48 h
pIC50: −log10 of the molar value.
readout.label: pIC50

{"molecule": "C[C@H](NP(=O)(OC[C@@H]1C[C@@H](O)[C@H](n2cnc3c(N)ncnc32)O1)Oc1ccccc1)C(=O)OCc1ccccc1 (stereo partly shown)", "readout.label": "pIC50", "reported.measurement": 4.31}

====

- Tested on: cancer cell lines
- procedure.summary: IC50 across a wide set of cancer cell lines
- Type: cell-based
- recorded.conditions: read-out: mean IC50
readout.label: IC50 (µM)

{"compound": "C[C@H](NP(=O)(OC[C@@H]1C[C@@H](O)[C@H](n2cnc3c(N)ncnc32)O1)Oc1ccccc1)C(=O)OCc1ccccc1 (stereo partly shown)", "unit.label": "µM", "reported.measurement": 18.8}

====

- procedure.summary: Beagle dog 4-week toxicology and toxicokinetics
- recorded.conditions: both, beagle, plasma, iv, 10 mg/kg/day
readout.label: Cmax (ng/mL)

{"molecule": "C[C@H](NP(=O)(OC[C@@H]1C[C@@H](O)[C@H](n2cnc3c(N)ncnc32)O1)Oc1ccccc1)C(=O)OCc1ccccc1 (stereo partly shown)", "reported.measurement": 1560}

====

- Test system: Tera-1
- procedure.summary: MTT cell viability, Tera-1
- Assay type: cell-based
- recorded.conditions: 48 h

{"compound": "C[C@H](NP(=O)(OC[C@@H]1C[C@@H](O)[C@H](n2cnc3c(N)ncnc32)O1)Oc1ccccc1)C(=O)OCc1ccccc1 (stereo partly shown)", "measured.target": "Tera-1", "unit.label": "µM", "IC50": 4.36}

====

- Tested on: ACHN
- procedure.summary: MTT cell viability, ACHN
- Format: cell-based
- recorded.conditions: Homo sapiens, 48 h

{"compound": "C[C@H](NP(=O)(OC[C@@H]1C[C@@H](O)[C@H](n2cnc3c(N)ncnc32)O1)Oc1ccccc1)C(=O)OCc1ccccc1 (stereo partly shown) [NUC-7738]", "measured.target": "ACHN", "unit.label": "µM", "IC50": 54.7}

====

- Tested on: SK-OV3
- procedure.summary: MTT cell viability, SK-OV3
- Type: cell-based
- recorded.conditions: Homo sapiens, SK-OV-3; SK-OV3, 48 hours; 2 biological replicates; read-out: IC50
pIC50: −log10 of the molar value.

{"molecule": "Nc1ncnc2c1ncn2[C@@H]1O[C@H](CO)C[C@H]1O [3′-dA, 3′-deoxyadenosine, reference compound]", "pIC50": 3.44}
